# System: A498 renal
# EXPERIMENT: NCI tumour cell line growth inhibition, 48 h
OBSERVABLE: TGI

[Q] Kindly indicate its recorded TGI. Item: Cc1nc2ccccc2c(=O)n1/N=C(\N=Nc1ccccc1)c1ccccc1Cl
[A] > 100 µM

[Q] Kindly indicate its recorded TGI. Item: CC(=O)NC(CCCCNCc1ccccc1)C(=O)NCc1ccccc1 (stereo unspecified)
[A] > 100 µM

[Q] Kindly indicate its recorded TGI. Item: CCOC(=O)C(=[N+]=[N-])C(=O)CSC#N
[A] > 100 µM

[Q] Kindly indicate its recorded TGI. Item: CCc1cccc(C(C)C)c1NC(=O)/C(=N\NC(N)=O)C(C(=O)OC)c1cnc2ccccc2n1 (stereo unspecified)
[A] > 100 µM

[Q] Kindly indicate its recorded TGI. Item: NC(=O)N/N=C(\CC1OC(=O)c2ccccc21)c1ccc([N+](=O)[O-])cc1 (stereo unspecified)
[A] > 100 µM

[Q] Kindly indicate its recorded TGI. Item: Cc1csc2nc(-c3cccc([N+](=O)[O-])c3)c(/C=N/N=C(N)N)n12
[A] 2.92 µM

The measurements presented in this section are drawn from PubChem BioAssay (NCI).
